Test system: MALME-3M melanoma
Experiment: NCI-60 one-dose screen, 48 h (100 = growth as untreated, 0 = no growth, -100 = all killed)
Settings: 10 µM unless noted
The panel holds about 83,000 compounds, 20% with a hit somewhere; the sample as a whole holds those more often.
QUANTITY NAME: growth (%)

COMPOUND | QUANTITY NAME | RECORDED NUMBER
CN(C)CCNC(=O)c1ccc(-c2nc3ccc4[nH]ncc4c3c3c2CCC3)cc1 | growth | -0.0162
NS(=O)(=O)c1ccc(Nc2nc(N/N=C/c3c[nH]c4ccccc34)nc(Nc3ccccc3)n2)cc1 | growth | 46.1
COc1cccc(N2CCN(c3ncnc4c3[nH]c3ccc(F)cc34)C[C@H]2C)c1 | growth | 48.2
CCN(CC)c1cn(-c2ccc(S(N)(=O)=O)cc2)nn1 | growth | 103
CCC1=Cc2cc(OC)ccc2OC12C=Cc1cc(OC)ccc1O2 (stereo not given) | growth | 58.4

---

Tested on: MDA-MB-435 melanoma
Experiment: NCI-60 one-dose screen, 48 h
Details: 10 µM unless noted
Compounds without any hit were thinned out: in the full panel of roughly 83,000, 20% have a hit. Activity calls are given as the source filed them. The calls were made as follows: active = growth percent below 10; inactive = the rest.
Labels: label 1 for active, label 0 for inactive

COMPOUND | LABEL CLASS
C[C@@H]1C[C@H]2C(=O)O[C@@H](C)C(NC(=O)[C@H](Cc3cc(F)cc(F)c3)NC(=O)Nc3ccc(C4CC4)cc3F)C(=O)N3CCC[C@H]3C(=O)N3CCCC[C@H]3C(=O)N[C@@H](CO)C(=O)N2C1 (some centres not stated) | label 0
N/C(=N\C(N)=N\c1nc2ccccc2s1)c1cccc(F)c1 | label 0
CCCCCc1ccc(S(=O)(=O)Nc2cccc(-c3csc(NCCN4CCN(C)CC4)n3)c2)cc1 | label 0
COc1cc(C2N=C(NNc3ccccc3)NC(C)=C2C(C)=O)ccc1O (configuration not stated) | label 0
O=C1C(c2ccccc2)=C(N2CCc3ccccc32)OC1(Cl)Cl | label 0
O=C(CNc1nc(-c2cccc([N+](=O)[O-])c2)cs1)Nc1cccc(Cl)c1 | label 0
O=C(NNc1nc2cc(F)c(F)cc2n2c(CN3CC4CNCC4C3)ccc12)c1ncccn1 (configuration not stated) | label 0
COc1ccc(/C=N/NC2=NC3C(S2)N(C)C(=O)N3C)cc1 (configuration not stated) | label 1
NC(N)=Nc1ccc(Oc2cccc(NC(N)=Nc3ccc(I)cc3F)c2)cc1 | label 0
C[C@H](CCC(=O)NCc1ccc(C(=O)Nc2ccccc2N)cc1)[C@H]1CC[C@H]2[C@@H]3[C@@H](O)C[C@@H]4C[C@H](O)CC[C@]4(C)[C@H]3CC[C@]12C | label 0
O=C(CSc1nc2ccccc2c(=O)n1-c1ccccc1)Nc1cccc(C(=O)/C=C/c2ccccc2Cl)c1 | label 0
NS(=O)(=O)c1ccc(Nc2cc(-c3ccccc3)nc(SCC(=O)c3ccccc3)n2)cc1 | label 0
Nc1cc(-c2c[nH]c3ccc(Br)cc23)nc2cc(-c3c[nH]c4ccc(Br)cc34)nn12 | label 1
CC1(C)NCCC[C@]2(C)[C@H]3C/C(=N\O)C4[C@@H]5C[C@@](C)(CO)CC[C@]5(C)CC[C@@]4(C)[C@]3(C)CC[C@@H]12 (some centres not stated) | label 0
N#Cc1cnc2ccc(-c3cnc4[nH]ncc4c3)cc2c1N1CCc2cc(F)c(Cl)cc21 | label 1
COc1cc2nc(Cl)nc(Nc3cccc(C4=Nc5c(N)nc(N)nc5NC(c5ccc(F)cc5)C4)c3)c2cc1OC (configuration not stated) | label 0
O=C(CN1CCN(c2cc(=O)n(-c3ccccc3)c3ccccc23)CC1)Nc1nc(-c2ccc(Cl)cc2)cs1 | label 0

---

Test system: U251 CNS
Assay: NCI-60 one-dose screen, 48 h
Settings: 10 µM unless noted
Compounds without any hit were thinned out: in the full panel of roughly 83,000, 20% have a hit. Activity calls are given as the source filed them. How the source made its calls: active means growth percent below 10; inactive means the rest.
Labels: active, inactive

COMPOUND | LABEL CLASS
O=C(Nc1ccc(F)c(F)c1)c1cc(-c2ccc(F)cc2F)ccc1O | inactive
O=C(Nc1ccc(Br)cc1)Nc1nc2ccc([N+](=O)[O-])cc2s1 | active
O=C(CSc1nc2ccccc2c(=O)n1-c1ccc(Cl)cc1)N/N=C/c1ccc(N2CCCCC2)cc1 | inactive
Nc1nc(N)c2c(n1)NC(c1ccc(Cl)cc1)CC(c1ccc(Nc3nc(NCCO)nc(N4CCOCC4)n3)cc1)=N2 (centres undefined) | inactive
C=CCn1c(SCC(=O)Nc2ccc(C(=O)/C=C/c3ccc(Cl)cc3)cc2)nnc1-c1c[nH]c2ccccc12 | inactive
CCC(NC(c1cc2cccc3ccc4cccc1c4c32)c1nnnn1C(C)(C)C)C1CCCCC1 (centres undefined) | inactive
CCNC(=O)N1CCc2cc(OC)c(OCCc3ccc(OC)cc3)cc2C1c1ccc([N+](=O)[O-])cc1C (centres undefined) | inactive
COc1cc2oc(-c3cccc(N)c3)cc(=O)c2c(OC)c1OC | inactive
COc1cc(-c2nc3sccn3c2-c2ccnc(S(C)(=O)=O)n2)ccc1F | inactive
COc1ccc(CCOc2cc3c(cc2OC)CCN(C(=O)NCc2cocn2)C3c2ccc(C)cc2C)cc1 (centres undefined) | active
CCN(CC)CCn1c2ccc(O)cc2c2sc3cc(OC)ccc3c(=O)c21 | inactive
CN(Cc1ccccc1)S(=O)(=O)/N=C1\NC(=O)NC1=C(Cl)Cl | inactive
N#C/C(=C\c1ccc(-c2ccc(Cl)cc2Cl)o1)c1ccc(F)cc1 | inactive
CCCCCc1ccc(S(=O)(=O)Nc2cc(-c3csc(NC(=O)CN4CCN(C)CC4)n3)ccc2OC)cc1 | active
COc1ccc(-c2nc3ccc(-c4nnc(SCC(=O)Nc5ccc(C(=O)/C=C/c6ccc(Cl)cc6)cc5)o4)cc3[nH]2)cc1 | inactive
N#Cc1ccccc1Cn1c2nc(=N)c3ccccc3c-2nc2ccccc21 | inactive
COC(=O)C(Cc1ccccc1)Nc1nc(NC(Cc2ccccc2)C(=O)OC)nc(N2CCOCC2)n1 (centres undefined) | inactive
COc1cc2oc(-c3cccc(C(=O)N[C@@H](CC(C)C)C(=O)OC(C)(C)C)c3)cc(=O)c2c(OC)c1OC | inactive
CCCn1cnc2c(c1=N)C(c1ccc(F)cc1)c1sc3c(C)cccc3c1O2 (centres undefined) | inactive

---

Test system: M14 melanoma
Assay: NCI-60 one-dose screen, 48 h (100 = growth as untreated, 0 = no growth, -100 = all killed)
Conditions: 10 µM unless noted
About 83,000 compounds went through this panel and 20% of them were active in at least one assay; those are over-represented in the sample as a whole.
QUANTITY NAME: growth (%)

COMPOUND | TARGET SYSTEM | READOUT UNIT | RECORDED NUMBER
CC1(C)CC[C@]2(C(=O)N3CCOCC3)CC[C@]3(C)C(=CC[C@@H]4[C@@]5(C)C/C(=C/c6ccccn6)C(=O)C(C)(C)[C@@H]5CC[C@]43C)[C@@H]2C1 | M14 melanoma | % | 77.9
CC(C)c1ccc(NCc2cn(-c3ccc(C(=O)O)cc3)nc2-c2cc(C(F)(F)F)cc(C(F)(F)F)c2)cc1 | M14 melanoma | % | 86
CCOC(=O)c1c(Nc2ccccc2)nn2c(-c3ccccc3)ccnc12 | M14 melanoma | % | 110
FC(F)(F)c1cc(Nc2cccc(Oc3ccc(NC4=NCCN4)nc3)c2)ccc1Cl | M14 melanoma | % | -50.7
Cc1cc(-c2ccc(Cl)cc2)n(Cc2nnc(SCC(=O)Nc3ccc(S(N)(=O)=O)cc3)n2C2CCCCC2)n1 | M14 melanoma | % | 99.8
NS(=O)(=O)c1ccc(-n2cc(-c3cccc(NC(=O)c4ccc(N5CCOCC5)c(C(F)(F)F)c4)c3)nn2)cc1 | M14 melanoma | % | 45.3
COc1ccc(-n2c(SCc3n[nH]c(=S)o3)nc3ccc(Cl)cc3c2=O)cc1 | M14 melanoma | % | 112
CCc1cccc(NC(=O)CNc2cc(S(=O)(=O)N(C)C)cc(C)c2C)c1 | M14 melanoma | % | 100
COc1ccc(NCc2cn(-c3ccc(C(=O)O)cc3)nc2-c2cc(C(F)(F)F)cc(C(F)(F)F)c2)cc1 | M14 melanoma | % | 96.4
O=C(CSc1nc2ccccc2c(=O)n1-c1ccccc1)Nc1cccc(C(=O)/C=C/c2ccccc2)c1 | M14 melanoma | % | 97.5
Cc1c(F)cc(C(N)=O)cc1NCC(=O)Nc1ccc([N+](=O)[O-])cc1 | M14 melanoma | % | 99.1
Cc1cc(C)c(N2C(=O)CC(Nc3ccc(Cl)cc3Cl)C2=O)c(C)c1 (stereo unspecified) | M14 melanoma | % | 103
CCOc1ccc(C(=O)Nc2ncc(Cc3ccc(F)cc3)s2)cc1 | M14 melanoma | % | 15.4
O=C(Nc1nc2ccc([N+](=O)[O-])cc2s1)Nc1ccccc1Br | M14 melanoma | % | 54.5
N#Cc1c(Nc2ccccc2)nn2c(-c3ccc([N+](=O)[O-])cc3)ccnc12 | M14 melanoma | % | 106
CCOC(=O)c1c(Nc2ccccc2)nn2c(-c3ccc(OC)cc3)ccnc12 | M14 melanoma | % | 96
C=C(C)[C@@H]1CC[C@]2(COCCCNCCC#N)CC[C@]3(C)[C@H](CC[C@@H]4[C@@]5(C)CC[C@H](OCCCNCCC#N)C(C)(C)[C@@H]5CC[C@]43C)[C@@H]12 | M14 melanoma | % | 75.3
O=C(CCn1c[n+](CC(=O)c2ccc(F)cc2)c2ccccc21)Nc1cccc2cccnc12 | M14 melanoma | % | 79.8
O=C(CCn1c[n+](CC(=O)c2ccc(-c3ccccc3)cc2)c2ccccc21)Nc1cccc2cccnc12 | M14 melanoma | % | 49.1
Cc1cc2ncc(-c3cc4ccccc4c(N4CCN(C)CC4)n3)nc2cc1C | M14 melanoma | % | -85.7
O=C(CN1CCN(c2cc(=O)n(-c3ccccc3)c3ccccc23)CC1)Nc1ccc(F)cc1 | M14 melanoma | % | 75.7
COc1cc(OC)c(S(N)(=O)=O)cc1C(C)=O | M14 melanoma | % | 109
O=C(CN1CCN(c2cc(=O)[nH]c3ccc(F)cc23)CC1)Nc1ccc(Cl)cc1 | M14 melanoma | % | 85
O=S(=O)(Nc1ccc2c(c1)OCO2)c1ccc(-c2cnc(C3CC3)o2)cc1 | M14 melanoma | % | 22.8
NC(=O)c1cccc(-n2ccc3cc(NC(=O)Nc4ccc(N5CCOCC5)c(C(F)(F)F)c4)ccc32)n1 | M14 melanoma | % | 16.7
CC(O)c1cc2ccccc2c(=O)o1 (stereo unspecified) | M14 melanoma | % | 107
COc1cc(-c2nn(C(C)(C)C)cc2-c2ccnc(NCCCNS(=O)(=O)c3ccc(F)cc3)n2)ccc1Cl | M14 melanoma | % | 93.3
O=C1/C(=C/C=C/c2ccco2)SC(=S)N1C1CCCCC1 | M14 melanoma | % | 93.8
COC(=O)c1ccc(NC2=C/C(=N/S(=O)(=O)c3ccc(C(=O)O)cc3)c3ccccc3C2=O)cc1 | M14 melanoma | % | 67.4
Nc1nc(N)c2c(n1)NC(c1ccc(C(F)(F)F)cc1)CC(c1ccc(Nc3nc(NCCO)nc(N4CCOCC4)n3)cc1)=N2 (stereo unspecified) | M14 melanoma | % | 71.7
COc1cccc2c1CN(C(=O)c1ccc(O)c(C(=O)N3Cc4ccc(OCCC[P+](c5ccccc5)(c5ccccc5)c5ccccc5)cc4C3)c1)C2 | M14 melanoma | % | 89.3
O=C(O)c1cn(C2CC2)c2cc(N3CCN(C(=O)CN4C(=O)CSC4=O)CC3)c(F)cc2c1=O | M14 melanoma | % | 108
CCO/C=N/C1=C(C#N)C(c2ccc(OC)cc2)c2sc3c(C)cccc3c2O1 (stereo unspecified) | M14 melanoma | % | 5.22
COc1cccc2cc(-c3cc4ccccc4[nH]3)/c(=N\NC(=O)c3ccc(Cl)cc3)oc12 | M14 melanoma | % | 31.9
Cc1cc(S(=O)(=O)N(C)C)cc(NCC(=O)NC(=O)NCC(C)C)c1C | M14 melanoma | % | 100
O=C(CN1CCN(c2cc(=O)n(-c3ccccc3)c3ccccc23)CC1)Nc1cccc(C(F)(F)F)c1 | M14 melanoma | % | 60.5
